Each entry below lists one item and its recorded hGH fold inhibition relative to solvent control value.
Tested on: hGH promoter
PROTOCOL NOTES: hGH promoter/luciferase reporter assay (high-throughput screen I), 532 cells
Format: cell-based, rat
MEASUREMENT SETUP: transcriptional inhibitors, Table 2; 6 h incubation
VALUE TYPE: hGH fold inhibition relative to solvent control (fold)

compound="Cc1cc(C2(c3cc(C)c(O)c(CN(CC(=O)O)CC(=O)O)c3)OC(=O)c3ccccc32)cc(CN(CC(=O)O)CC(=O)O)c1O [Chemical 1773]" meas_value=10.00
compound="O=C(c1ccc(O)c(O)c1)c1c(O)cc(O)cc1O [Chemical 660]" meas_value=0.34
compound="CCCCCCCCCCCCCCCCBr [Chemical 2037]" meas_value=4.00
compound="Nc1c(Br)cc([N+](=O)[O-])cc1[N+](=O)[O-] [Chemical 2010]" meas_value=0.63
compound="O=C(O)c1cc(C(F)(F)F)ccc1C(F)(F)F [Chemical 1655]" meas_value=4.76
compound="C1CCNCC1 [Chemical 759]" meas_value=5.88
compound="COC(=O)CP(=O)(OCC(F)(F)F)OCC(F)(F)F [Chemical 1651]" meas_value=3.57
compound="Cc1cc(=O)oc2c(CN(CC(=O)O)CC(=O)O)c(O)ccc12 [Chemical 1712]" meas_value=8.33
compound="O=S(=O)(O)c1ccc2c(N=Nc3ccc(S(=O)(=O)O)c4ccccc34)c(O)c(S(=O)(=O)O)cc2c1 [Chemical 512]" meas_value=5.26
compound="Nc1c(O)c(S(=O)(=O)O)c(O)c2c1C(=O)c1ccccc1C2=O [Chemical 640]" meas_value=5.00
compound="Cc1n[nH]c(C)c1Br [Chemical 2009]" meas_value=0.57
compound="CC1(C)[C@H]2CC[C@]1(C)[C@H](O)C2 [Chemical 1635]" meas_value=9.09
compound="Cc1c(C(=O)O)c(O)cc2c1C(=O)c1c(O)c([C@@H]3O[C@H](CO)[C@@H](O)[C@H](O)[C@H]3O)c(O)c(O)c1C2=O [Chemical 1770]" meas_value=10.00
compound="O=C(c1ccccc1)c1ccncc1 [Chemical 209]" meas_value=1.08
compound="CC1=CC(=C(c2cc(C)c(O)c(C(=O)O)c2)c2c(Cl)ccc(S(=O)(=O)O)c2Cl)C=C(C(=O)O)C1=O [Chemical 556]" meas_value=33.33
compound="Cc1c(C(=O)O)c(O)cc2c1C(=O)c1c(O)c([C@@H]3O[C@H](CO)[C@@H](O)[C@H](O)[C@H]3O)c(O)c(O)c1C2=O [Chemical 240]" meas_value=5.26
compound="C(=Cc1ccccn1)c1ccccn1 [Chemical 1640]" meas_value=5.00
compound="O=c1c(O)c(-c2ccc(O)cc2O)oc2cc(O)cc(O)c12 [Chemical 371]" meas_value=0.41
compound="O=P(O)(O)Oc1c[nH]c2ccc(Br)c(Cl)c12 [Chemical 541]" meas_value=6.25
compound="CC1(C)[C@H]2CC[C@]1(C)C(=O)C2 [Chemical 1720]" meas_value=4.76
